System: KM12 colon
assay-method-text: NCI-60 one-dose screen, 48 h
condition-details: 10 µM unless noted
The panel holds about 83,000 compounds, 20% with a hit somewhere; the sample as a whole holds those more often. The source made the active and inactive calls. Rule for the calls: active = growth percent below 10; inactive = the rest.
// allowed return values: active, inactive

Illustrative cases are given below, each with its answer.
CCC(CC)C(=O)OC(C)COc1ccc(C(C)(C)C)cc1 (centres undefined)
inactive
Cc1cc2nc3c4cc(O)ccc4n(CCN(C)C)c3nc2cc1C
inactive
O=C1Nc2ccccc2/C1=C/c1cn(CCCn2c3ccccc3c(=O)c3ccccc32)c2ccccc12
inactive

[in] I'd appreciate the recorded outcome for Nc1c2c(nc3ccc(Cl)cc13)CC(c1ccccc1)CC2=O (centres undefined) from this test.
[out] inactive

[in] Field entry: CC1(C)NC2=C(C(Nc3cccnc3)N1)C(c1ccc([N+](=O)[O-])cc1)C(C(=O)c1ccc(N=[N+]=[N-])cc1)O2 (centres undefined)
[out] inactive

[in] Entry to check: COc1cc2c3c(c4c5ccccc5[nH]c4c2c(OC)c1OC)C(=O)N(O)C3=O
[out] inactive

====

Test system: SF-268 CNS
assay-method-text: NCI-60 one-dose screen, 48 h (100 = growth as untreated, 0 = no growth, -100 = all killed)
condition-details: 10 µM unless noted
Compounds without any hit were thinned out: in the full panel of roughly 83,000, 20% have a hit. The source made the active and inactive calls. Rule for the calls: active = growth percent below 10; inactive = the rest.
result-type: growth

Cn1c(=O)c2c(ncn2CCC(=O)Nc2ccc(F)cc2)n(C)c1=O
103% (inactive)
COc1ccc2c(c1)c(-c1nc(-c3c[nH]c4ncccc34)cs1)cn2CCN
80.1% (inactive)
C#Cc1cccc(NC(=O)C2CCCN(C(=O)CCl)C2)c1 (stereo not given)
78.3% [8.25 µM] (inactive)
COC(=O)[C@]12CC[C@@H](C(/C=C/c3cccnc3)=N/O)[C@@H]1[C@H]1CC[C@@H]3[C@@]4(C)CC(=C/c5cccnc5)/C(=N/O)C(C)(C)[C@@H]4CC[C@@]3(C)[C@]1(C)CC2
56.7% (inactive)

// next entry
[in] Reported growth for Cn1cccc1/C=C1/SC(=S)N(CCc2ccc(O)cc2)C1=O : what is it?
[out] 74% (inactive)

====

Test system: SW-620 colon
assay-method-text: NCI-60 one-dose screen, 48 h (100 = growth as untreated, 0 = no growth, -100 = all killed)
condition-details: 10 µM unless noted
This is part of a sample that, as a whole, favours compounds with a hit. Of some 83,000 tested, about 20% had one in any assay.
Readings of growth for the listed compounds
Form entry: value (%) — number only.

Some solved cases for reference:
Cc1ccc(-c2nc3ccc(Cl)cc3c(=O)n2N2C(=O)CSC2c2ccccc2Cl)cc1 (centres undefined)
77.8
COC(=O)[C@]12CC[C@@H](C)[C@H](C)[C@@H]1C1=CC[C@@H]3[C@@]4(C)C[C@@H](OC(C)=O)[C@H](O)[C@@](C)(COC(C)=O)[C@@H]4[C@H](O)C[C@@]3(C)[C@]1(C)CC2
-80.9
Cc1cc(N2CCCCC2)nc(N(CCNc2ccnc3cc(Cl)ccc23)Cc2ccco2)n1
21.9
O=[N+]([O-])c1cccc(/C=N\Nc2ccccc2)c1
71.3
CCN1CCN(C(=O)[C@@]2(C)CC[C@]3(C)CC[C@]4(C)C(=CC(=O)[C@@H]5[C@@]6(C)CC[C@H](OC7C[C@@H](O)[C@@H](O)C(C)O7)C(C)(C)[C@@H]6CC[C@]54C)[C@@H]3C2)CC1 (some centres undefined)
36.7
Cc1cc(N=O)cc(C(C)(C)C)c1O
94.8
Clc1cc(Cl)cc(Nc2ccc3c(OCCCN4CCOCC4)cccc3n2)c1
-41.9
C=C1CC[C@@H](C(=O)OC)Cc2nc(C)ccc21
102
Cn1c2c(Cl)c(Cl)ccc2c2c(C#N)c[nH]c(=O)c21
106
CC(c1ccccc1)N1C(=O)C(C2SC(=S)N(C(C)c3ccccc3)C2=O)SC1=S (centres undefined)
54.7

[in] Which measured growth value corresponds to COc1cccc(-c2nn(-c3ccccc3)cc2-c2ccnc(NCCCNS(=O)(=O)c3ccc(Cl)cc3)c2)c1 ?
[out] 62.6
